- Assay Overview: In vitro cytotoxicity assay (AlamarBlue) against PMA-transformed THP1 cells
- Format: cell-based
- Assay Setup: human, PMA-transformed non-dividing THP1, mean ± SEM of duplicates, NC = not cytotoxic at highest concentration tested (50 μM inhibitors, 500 nM CQ), read-out: THP1 Cell Cytotoxicity (IC50)
Quick reference: IC50 at 48 h of the listed items.
Measurement Type: IC50 at 48 h

> print(dat)
                                   molecule  recorded.measurement
1  Cc1ccc2ccc(C(Nc3ccccc3)c3ccccc3)c(O)c2n1 (centres unmarked) [NSC 66811]               37.8 µM
2  COc1ccc(C2=N[C@@H](c3ccc(Cl)cc3)[C@@H](c3ccc(Cl)cc3)N2C(=O)N2CCNC(=O)C2)c(OC(C)C)c1 (racemic) [Nutlin 3]               35.2 µM
3      O=C1c2ccccc2-c2nc3nonc3nc21 [SMER 3]                5.8 µM
4  c1ccc2c(CCNc3ccc(Nc4ccncc4)cc3)c[nH]c2c1 [JNJ 26854165, Serdemetan]               22.4 µM
5  CCc1c2ccccc2c(CSC(=N)N)c2ccccc12 [NSC 146109]                1.2 µM

###

Below: a set of entries, each annotated with reported IC50 at 48 h.
- Assay Overview: In vitro cytotoxicity assay (AlamarBlue) against Vero cells
- Format: cell-based
- Assay Setup: African green monkey, Vero cells (kidney epithelial cells), mean ± SEM of duplicates, NC = not cytotoxic at highest concentration tested (50 μM inhibitors, 500 nM CQ), read-out: Vero Cell Cytotoxicity (IC50)
Measurement Type: IC50 at 48 h (µM)

> print(dat)
                   structure.smiles  measurement.type  unit.of.measure  recorded.measurement
1  CCc1c2ccccc2c(CSC(=N)N)c2ccccc12      IC50 at 48 h               µM                  5.27
2       O=C1c2ccccc2-c2nc3nonc3nc21      IC50 at 48 h               µM                    16
